target: T1, hCSF1R ECD.506 (human, UniProt P07333 20-506); test: SPR Biacore T100, antibody captured on anti-human IgG, hCSF1R ECD.506 as analyte, 1:1 model
T1 construct: also called human CSF1R ECD
T1 sequence (P07333 20-506): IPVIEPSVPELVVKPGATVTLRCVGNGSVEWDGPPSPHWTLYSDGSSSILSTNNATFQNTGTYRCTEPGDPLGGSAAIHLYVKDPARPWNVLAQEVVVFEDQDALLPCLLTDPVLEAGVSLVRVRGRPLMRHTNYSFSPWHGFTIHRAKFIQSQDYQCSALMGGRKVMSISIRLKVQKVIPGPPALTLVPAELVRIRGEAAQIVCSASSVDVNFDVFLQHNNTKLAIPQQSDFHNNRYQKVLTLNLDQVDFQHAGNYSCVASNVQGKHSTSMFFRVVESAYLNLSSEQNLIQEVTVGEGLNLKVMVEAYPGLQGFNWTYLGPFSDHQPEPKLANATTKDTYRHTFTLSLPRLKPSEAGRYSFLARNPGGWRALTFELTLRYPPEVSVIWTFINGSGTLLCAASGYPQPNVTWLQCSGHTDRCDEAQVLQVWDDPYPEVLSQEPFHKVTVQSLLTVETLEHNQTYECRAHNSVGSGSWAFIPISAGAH
MEASURED PROPERTY: Kd (pM)
# unit: pM | format: bare number

binder="h0302-L0H2 (antibody, human IgG4 S228P, kappa, V domains shown, also called Ab10; huAb 0302-L0H2) VH: QVQLVQSGAEVKKPGSSVKVSCKASGYTFSDFNIHWVRQAPGQGLEWIGYINPYTDVTVYNEKFKGRATLTSDKSTSTAYMELSSLRSEDTAVYYCASYFDGTFDYALDYWGQGTLVTVSS VL: EIVLTQSPATLSLSPGERATLSCRASESVDNYGLSFMNWYQQKPGQAPRLLIYTASNLESGIPARFSGSGSGTDFTLTISSLEPEDFAVYYCQQSKELPWTFGQGTKVEIKR" endpoint_result=530

Kd for h0302-L0H1 (antibody, human IgG4 S228P, kappa, V domains shown, also called Ab7; huAb 0302-L0H1) VH: QVQLVQSGAEVKKPGSSVKVSCKASGYTFSDFNIHWVRQAPGQGLEWMGYINPYTDVTVYNEKFKGRVTITSDKSTSTAYMELSSLRSEDTAVYYCASYFDGTFDYALDYWGQGTLVTVSS VL: EIVLTQSPATLSLSPGERATLSCRASESVDNYGLSFMNWYQQKPGQAPRLLIYTASNLESGIPARFSGSGSGTDFTLTISSLEPEDFAVYYCQQSKELPWTFGQGTKVEIKR ?
1040
